Target: T1, cynomolgus monkey CTLA-4 ECD-6×His (cynomolgus monkey)
T1 construct: extracellular domain; Bought; also called cynomoguls monkey CTLA-4.ECD-6×His
Experiment: SPR, antibody captured on anti-human Fc, CTLA-4.ECD-6×His as analyte, 1:1 fit
Experimental: Biacore T200, Series S Sensor Chip CMS, Amine Coupling Kit, and 10×HBS-EP were purchased from GE Healthcare. […] In immobilization step, the activation buffer was prepared by mixing 400 mM EDC and 100 mM NHS immediately prior to injection. The CM5 sensor chip was activated for 420 s with the activation buffer. […] The binding kinetics of these antibodies were measured using SPR. […]
Metric: log10(koff) (log10 of the value in s⁻¹)
Scale: log10; quantity: koff; unit before log: s⁻¹

Solved cases below.
{"Binder": "W3162-1.145.10 xAb.IgG1 (antibody, V domains shown, Chimeric: rat variable regions fused with constant region of human antibody (label xAb.IgG1)) VH: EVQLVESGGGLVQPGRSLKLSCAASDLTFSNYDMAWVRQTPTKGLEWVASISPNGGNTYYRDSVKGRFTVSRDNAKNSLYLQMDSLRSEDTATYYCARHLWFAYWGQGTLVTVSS VL: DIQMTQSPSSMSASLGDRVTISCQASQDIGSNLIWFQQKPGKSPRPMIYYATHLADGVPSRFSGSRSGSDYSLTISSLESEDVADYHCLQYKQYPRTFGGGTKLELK", "Metric": "log10(koff)", "Reported Result": -2.42}
{"Binder": "W3162-1.146.19-z12-uAb.IgG1K (antibody, V domains shown, Humanized; label says IgG1K) VH: QVQLQESGPGLVKPSETLSLTCSVTYHTITSGYDWTWIRKPPGKGMEWIGYISYSGNTNYNPSLKSRVTISRDTSKNQFFLKLSSVTAADTAVYYCASMMVPHYYVMDAWGQGTLVTVSS VL: DIVMTQTPLSLSVTPGQPASISCRSSQSLLNSDGNTYLYWYLQKPGQSPQLLIYLVSKLGSGVPNRFSGSGSGTDFTLKISRVEAEDVGVYYCVQGTHDPWTFGGGTKVEIK", "Metric": "log10(koff)", "Reported Result": -3.48}
{"Binder": "W3162-1.146.19 xAb.IgG1 (antibody, V domains shown, Chimeric: rat variable regions fused with constant region of human antibody (label xAb.IgG1)) VH: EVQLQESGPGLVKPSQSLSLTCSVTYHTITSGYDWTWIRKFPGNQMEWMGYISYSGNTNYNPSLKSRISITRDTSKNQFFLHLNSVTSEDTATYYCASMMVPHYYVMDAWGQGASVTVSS VL: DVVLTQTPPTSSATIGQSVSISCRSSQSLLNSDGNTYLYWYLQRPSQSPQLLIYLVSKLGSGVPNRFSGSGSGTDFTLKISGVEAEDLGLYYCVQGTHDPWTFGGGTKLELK", "Metric": "log10(koff)", "Reported Result": -3.97}

Hey, quick one: what's log10(koff) for each of these?
1. W3162_1.145.10-z7-uAb.IgG1K (antibody, V domains shown, Humanized; label says IgG1K; also called W145) VH: EVQLVESGGGLVQPGGSLRLSCAASDLTFSNYDMAWVRQAPGKGLEWVASISPSGGNTYYRDSVKGRFTISRDNAKNSLYLQMNSLRAEDTAVYYCARHLWFAYWGQGTLVTVSS VL: DIQMTQSPSSLSASVGDRVTITCQASQDIGSNLIWFQQKPGKAPKPMIYYATHLADGVPSRFSGSRSGTDYTLTISSLQPEDFATYYCLQYKQYPRTFGGGTKVEIK
2. W3162_1.154.8-z35-uAb.IgG1K (antibody, V domains shown, Humanized; label says IgG1K) VH: QVQLVQSGAEVKKPGSSVKVSCKASGYTFTNYFMNWVRQAPGQGLEWMGRVDPEQGRADYAEKFKKRVTITADKSTSTAYMELSSLRSEDTAVYYCARRAMDNYGFAYWGQGTLVTVSS VL: EIVLTQSPDFQSVTPKEKVTITCSANSALSYMYWYQQKPDQSPKLWVHGTSNLASGVPSRFSGSGSGTDFTLTINSLEAEDAATYYCHHWSNTQWTFGGGTKVEIK

1. -2.57
2. -3.91

Can you look up the measured log10(koff) of W3162-1.154.8 xAb.IgG1 (antibody, V domains shown, Chimeric: rat variable regions fused with constant region of human antibody (label xAb.IgG1)) VH: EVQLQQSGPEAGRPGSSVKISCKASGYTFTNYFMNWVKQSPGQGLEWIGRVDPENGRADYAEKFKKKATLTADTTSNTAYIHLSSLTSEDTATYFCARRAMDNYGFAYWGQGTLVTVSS VL: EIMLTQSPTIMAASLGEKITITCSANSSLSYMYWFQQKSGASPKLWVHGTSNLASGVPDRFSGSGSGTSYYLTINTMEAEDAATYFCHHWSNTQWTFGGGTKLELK for me?
-3.96
